Form field: Emax (one value per entry).
# Assay System: GST tagged LXRalpha LBD (ligand binding domain) (Homo sapiens, UniProt Q13133)
# Construct: purchased Invitrogen pv4655
# Sequence (Q13133 209-447 limits assumed): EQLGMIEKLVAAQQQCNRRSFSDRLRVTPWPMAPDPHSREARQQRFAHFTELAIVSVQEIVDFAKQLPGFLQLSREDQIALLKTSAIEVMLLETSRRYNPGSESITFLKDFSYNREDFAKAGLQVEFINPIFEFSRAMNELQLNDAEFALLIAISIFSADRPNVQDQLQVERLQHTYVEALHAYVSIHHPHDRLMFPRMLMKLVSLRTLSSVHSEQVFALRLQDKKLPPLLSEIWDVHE
# Method Summary: LanthaScreen TR-FRET Liver X Receptor Coactivator Assay, LXR alpha-LBD (co-activator recruitment; IP and % Emax relative to T0901317)
# Assay type: biochemical
# Settings: efficacy at max dose in relation to reference T0901317, LXR alpha-LBD; read-out: LXR alpha actiivty at max dose (%)
# value in %; strip the unit string

1. COc1cccc([C@@](O)(C(=O)N(C)C2CC(CC3CCN(c4ccc(C(=O)N(C)C)c(C)n4)CC3)C2)C(F)(F)F)c1 (single isomer, unassigned) [Example 11-1]	0
2. CN(C)C(=O)c1ccc(N2CCC(CCCNC(=O)[C@]3(c4ccccc4)CCCO3)CC2)nc1Cl [Example 5-19]	36
3. Cc1cccc([C@@](O)(C(=O)N(C)CCCC2CCN(c3ccc(C(=O)N(C)C)c(Cl)n3)CC2)C(F)(F)F)c1 [Example 1-15]	0
4. CN(C)C(=O)c1ccc(N2CCC(CCCNC(=O)C(C)(C)c3ccccc3)CC2)cc1Cl [Example 5-4]	16

Problem: For the compound COc1cccc([C@@](O)(C(=O)N(C)C[C@@H]2C[C@@H]2C2CCN(c3ccc(C(=O)N(C)C)c(Cl)n3)CC2)C(F)(F)F)c1 [Example 15-3] , what Emax is on record?
Solution: 10

Problem: For the compound COc1cccc([C@@](O)(C(=O)Nc2ccc(C3CCN(c4ccc(C(=O)N(C)C)c(Cl)c4)CC3)cc2)C(F)(F)F)c1 [Example 10-3] , what Emax is on record?
Solution: 18

---

# Assay System: GST tagged LXRbeta LBD (ligand binding domain) (Homo sapiens, UniProt P55055)
# Construct: purchased Invitrogen pv4658.pps
# Sequence (P55055 222-460 limits assumed): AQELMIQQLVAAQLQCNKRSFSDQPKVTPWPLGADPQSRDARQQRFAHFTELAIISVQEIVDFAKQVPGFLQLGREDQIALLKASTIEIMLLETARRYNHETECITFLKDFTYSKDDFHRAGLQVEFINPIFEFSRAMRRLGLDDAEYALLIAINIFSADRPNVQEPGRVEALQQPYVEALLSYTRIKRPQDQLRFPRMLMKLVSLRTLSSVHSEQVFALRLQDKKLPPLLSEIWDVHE
# Method Summary: LanthaScreen TR-FRET Liver X Receptor Coactivator Assay, LXR beta-LBD (co-activator recruitment; IP and % Emax relative to T0901317)
# Format: biochemical
# Settings: efficacy at max dose in relation to reference T0901317, LXR beta-LBD
Measure: LXR beta actiivty at max dose (%)
# value in %; strip the unit string

Problem: For the molecule CN(C)C(=O)c1ccc(N2CCC([C@@H]3C[C@H]3CNC(=O)[C@@](O)(c3ccccc3)C(F)(F)F)CC2)cc1Cl [Example 15-18] , what LXR beta actiivty at max dose (%) is on record?
Solution: 66

The reported numbers originate from patent US10961215B2.
